assay: Blocking experiments: inhibition of radiotracer accumulation in the rat by coadministered compound; type: in vivo, rat (male Wistar); conditions: rat, brain, iv, rat, iv, 60 min, + (-)-7 HCl 0.53 mg/kg; read-out: radioactivity in brain

| compound | tissue uptake at 1 h |
| --- | --- |
| OC(Cc1ccc([125I])cc1)CN1CCC(c2ccccc2)CC1 (single isomer, unassigned; (-)) [(-)-4-[^125 l]HIPP] | 0.29 %ID/g |

###

assay: Tissue distribution (biodistribution) of radioiodinated compound in the rat; settings: rat, iv, 180 min
# radioactivity in spleen per record follows
observed_property: radioactivity in spleen

| compound | data_value |
| --- | --- |
| OC(Cc1cccc([125I])c1)CN1CCC(c2ccccc2)CC1 (single isomer, unassigned; (-)) [(-)-[^125 l]12] | 0.44 % dose/g |
| OC(CN1CCC(c2ccccc2)CC1)c1ccc([125I])cc1 (single isomer, unassigned; (+)) [(+)-[^125 l]13] | 0.77 % dose/g |
| OC(CN1CCC(c2ccccc2)CC1)c1ccc([125I])cc1 (single isomer, unassigned; (-)) [(-)-[^125 l]13] | 0.23 % dose/g |
| OC(Cc1ccc([125I])cc1)CN1CCC(c2ccccc2)CC1 (single isomer, unassigned; (-)) [(-)-4-[^125 l]HIPP] | 1.21 % dose/g |

###

assay: Blocking experiments: inhibition of radiotracer accumulation in the rat by coadministered compound; format: in vivo, rat (male Wistar); conditions: rat, liver, iv, rat, iv, 60 min, radiotracer only (control); read-out: radioactivity in liver

| compound | tissue uptake at 1 h |
| --- | --- |
| OC(Cc1cccc([125I])c1)CN1CCC(c2ccccc2)CC1 (single isomer, unassigned; (+)) [(+)-[^125 l]12] | 0.86 %ID/g |
| OC(Cc1ccc([125I])cc1)CN1CCC(c2ccccc2)CC1 (single isomer, unassigned; (-)) [(-)-4-[^125 l]HIPP] | 2.68 %ID/g |
| OC(CN1CCC(c2ccccc2)CC1)c1ccc([125I])cc1 (single isomer, unassigned; (+)) [(+)-[^125 l]13] | 1.85 %ID/g |

###

experiment: Tissue distribution (biodistribution) of radioiodinated compound in the rat; details: rat, liver, iv, radioactivity in liver, 60 min
Each entry below carries its recorded tissue uptake at 1 h.
observed_property: tissue uptake at 1 h

| compound | data_value |
| --- | --- |
| OC(Cc1cccc([125I])c1)CN1CCC(c2ccccc2)CC1 (single isomer, unassigned; (+)) [(+)-[^125 l]12] | 0.89 %ID/g |
| OC(Cc1ccc([125I])cc1)CN1CCC(c2ccccc2)CC1 (single isomer, unassigned; (+)) [(+)-4-[^125 l]HIPP] | 2.43 %ID/g |
| OC(CN1CCC(c2ccccc2)CC1)c1ccc([125I])cc1 (single isomer, unassigned; (+)) [(+)-[^125 l]13] | 2.18 %ID/g |

###

assay: Blocking experiments: inhibition of radiotracer accumulation in the rat by coadministered compound; format: in vivo, rat (male Wistar); details: rat, spleen, iv, rat, iv, 60 min, + cold (dl)3-HIPP HCl 0.53 mg/kg; read-out: radioactivity in spleen
observed_property: tissue uptake at 1 h (%ID/g)

| compound | data_value |
| --- | --- |
| OC(Cc1cccc([125I])c1)CN1CCC(c2ccccc2)CC1 (single isomer, unassigned; (+)) [(+)-[^125 l]12] | 0.5 |
